target-system: HLA-A*02:02
procedure-summary: IEDB peptide-MHC binding, purified MHC/competitive/radioactivity; filed as Kd, often an IC50 or EC50 that approximates it; bounds were set here for any values at or beyond the usual limits of such assays
conditions: source organism: Trypanosoma cruzi
value-type: pKd
Hey, just a heads up that pKd is the negative log base 10 of the concentration in molar.

// pKd lookup, sequence = GLLPLFLLLG , result: 7.54

---

target-system: HLA-A*69:01
procedure-summary: IEDB peptide-MHC binding, purified MHC/direct/fluorescence; filed as Kd, often an IC50 or EC50 that approximates it; bounds were set here for any values at or beyond the usual limits of such assays
conditions: source organism: Salmonella enterica subsp. enterica serovar Typhimurium
value-type: pKd
Value format note: pKd is -log10 of concentration (mol/L); just state the number.

The value of pKd recorded for MMLAQAYYG when tested on HLA-A*69:01 reads 5.50

---

target-system: HLA-A*11:01
procedure-summary: IEDB peptide-MHC binding, purified MHC/competitive/fluorescence; filed as Kd, often an IC50 or EC50 that approximates it; bounds were set here for any values at or beyond the usual limits of such assays
conditions: source organism: Brucella melitensis bv. 1 str. 16M
value-type: Kd

Reported Kd ( TTRAVNMEV ) = ≥ 5 µM

---

target-system: HLA-A*26:01
procedure-summary: IEDB peptide-MHC binding, purified MHC/competitive/fluorescence; filed as Kd, often an IC50 or EC50 that approximates it; bounds were set here for any values at or beyond the usual limits of such assays
conditions: source organism: Four Corners hantavirus
value-type: Kd

The recorded Kd for entry EKLKKKSAF equals ≥ 20 µM

---

target-system: HLA-B*07:02
procedure-summary: IEDB peptide-MHC binding, purified MHC/competitive/radioactivity; filed as Kd, often an IC50 or EC50 that approximates it; bounds were set here for any values at or beyond the usual limits of such assays
conditions: source organism: Dengue virus 1 Brazil/97-11/1997
value-type: Kd (µM)
Numbers only; they are read as µM.

sequence-record	units-text	Kd
RPGYFTQTA	µM	0.00478

Lab book: Kd of TPEGEVGAIA noted as 14.7

---

target-system: HLA-B*46:01
procedure-summary: IEDB peptide-MHC binding, purified MHC/direct/fluorescence; filed as Kd, often an IC50 or EC50 that approximates it; bounds were set here for any values at or beyond the usual limits of such assays
conditions: source organism: Vibrio parahaemolyticus AQ3810
pKd: −log10 of the molar value.
value-type: pKd

Entry EASTWLDIF — recorded pKd = ≤ 4.70

---

target-system: HLA-A*26:01
procedure-summary: IEDB peptide-MHC binding, purified MHC/competitive/fluorescence; filed as Kd, often an IC50 or EC50 that approximates it; bounds were set here for any values at or beyond the usual limits of such assays
conditions: source organism: Human immunodeficiency virus 1
value-type: Kd (µM)
Reply with just the number (in µM).

Observed Kd on HLA-A*26:01, entry GTEEIKSLY , equals 1.57

---

target-system: HLA-A*69:01
procedure-summary: IEDB peptide-MHC binding, purified MHC/direct/fluorescence; filed as Kd, often an IC50 or EC50 that approximates it; bounds were set here for any values at or beyond the usual limits of such assays
conditions: source organism: Amur virus
value-type: Kd

# Kd (sequence: SLFSLLPGV ) is ≤ 1 nM
